# System: sicklepod (Cassia obtusifolia, CASOB)
# procedure_details: Greenhouse herbicide screen, post-emerge application, phytotoxicity rating
# Type: in vivo
# stated_conditions: POST emergent, 250 g ai/ha, 14 days after application, scale 0-100
# Experimental: A standard greenhouse herbicide activity screening system was used to evaluate the herbicidal efficacy and crop safety of these test compounds. […] At 14 days after application of the test materials, phytotoxicity ratings were recorded. […]

molecule	tgt	phytotoxicity rating CASOB
C#CCOC(=NN=C(C(C)(C)C)C(C)(C)C)c1cc(-n2c(=O)cc(C(F)(F)F)n(C)c2=O)c(F)cc1Cl [Compound 5-7]	sicklepod (Cassia obtusifolia, CASOB)	50
CC1CCCC(C)N1NC(=O)c1cc(-n2c(=O)cc(C(F)(F)F)n(C)c2=S)c(F)cc1Cl (stereo not shown) [Compound 1-15]	sicklepod (Cassia obtusifolia, CASOB)	75
CN(NC(=O)c1cc(-n2c(=O)cc(C(F)(F)F)n(C)c2=O)c(F)cc1Cl)c1ccccc1 [Compound 1-9]	sicklepod (Cassia obtusifolia, CASOB)	95
CCOC(=O)NNC(=O)c1cc(-n2c(=O)cc(C(F)(F)F)n(C)c2=O)c(F)cc1Cl [Compound 1-23]	sicklepod (Cassia obtusifolia, CASOB)	98

----------
# Tested on: lambsquarters (Chenopodium album, CHEAL)
# procedure_details: Greenhouse herbicide screen, post-emerge application, phytotoxicity rating
# Format: in vivo
# stated_conditions: POST emergent, 63 g ai/ha, 14 days after application, scale 0-100
Measured phytotoxicity rating CHEAL accompanies every entry in the list below.
measurement_label: phytotoxicity rating CHEAL

molecule	measurement_label	reported_result
CC(=O)OC(=NN1C(C)CCCC1C)c1cc(-n2c(=O)cc(C(F)(F)F)n(C)c2=O)c(F)cc1Cl (stereo not drawn) [Compound 4-9]	phytotoxicity rating CHEAL	100
CC1CCCC(C)N1NC(=O)c1cc(-n2c(=O)cc(C(F)(F)F)n(C)c2=O)c(F)cc1Cl (stereo not drawn) [Compound 1-16]	phytotoxicity rating CHEAL	100
CN1CCN(NC(=O)c2cc(-n3c(=O)cc(C(F)(F)F)n(C)c3=S)c(F)cc2Cl)CC1 [Compound 1-14]	phytotoxicity rating CHEAL	0
CN(N=C(C(C)(C)C)C(C)(C)C)C(=O)c1cc(-n2c(=O)cc(C(F)(F)F)n(C)c2=O)c(F)cc1Cl [Compound 6-8]	phytotoxicity rating CHEAL	80
C#CCOC(=NN=C(C(C)(C)C)C(C)(C)C)c1cc(-n2c(=O)cc(C(F)(F)F)n(C)c2=O)c(F)cc1Cl [Compound 5-7]	phytotoxicity rating CHEAL	70
CC(=O)OC(=NN(C)C)c1cc(-n2c(=O)cc(C(F)(F)F)n(C)c2=O)ccc1Cl [Compound 4-4]	phytotoxicity rating CHEAL	100

----------
# System: field corn (Zea mays L., var. Dekalb 535, CORN)
# procedure_details: Greenhouse herbicide screen, post-emerge application, crop damage rating
# Type: in vivo
# stated_conditions: POST emergent, 63 g ai/ha, 14 days after application, scale 0-100

molecule	crop damage rating CORN
CC(=O)OC(=NN(C)C)c1cc(-n2c(=O)cc(C(F)(F)F)n(C)c2=O)ccc1Cl	25
Cn1c(C(F)(F)F)cc(=O)n(-c2cc(C(=O)NN=C(c3ccccc3)c3ccccc3)c(Cl)cc2F)c1=O	20
CC1CCCC(C)N1N=C(OC(=O)C(Cl)Cl)c1cc(-n2c(=O)cc(C(F)(F)F)n(C)c2=O)c(F)cc1Cl (stereo not shown)	90
CC1CCCC(C)N1NC(=O)c1cc(-n2c(=O)cc(C(F)(F)F)n(C)c2=S)c(F)cc1Cl (stereo not shown)	40
CC(=NN=C(OS(C)(=O)=O)c1cc(-n2c(=O)cc(C(F)(F)F)n(C)c2=O)c(F)cc1Cl)C(C)(C)C	60
CC(=NN=C(OC(=O)C(Cl)Cl)c1cc(-n2c(=O)cc(C(F)(F)F)n(C)c2=O)c(F)cc1Cl)C(C)(C)C	60
Cn1c(C(F)(F)F)cc(=O)n(-c2cc(C(=O)NN(Cc3ccccc3)Cc3ccccc3)c(Cl)cc2F)c1=O	10
CN(NC(=O)c1cc(-n2c(=O)cc(C(F)(F)F)n(C)c2=O)c(F)cc1Cl)c1ccccc1	75
CCOC(=O)NNC(=O)c1cc(-n2c(=O)cc(C(F)(F)F)n(C)c2=O)c(F)cc1Cl	80
CC1CCCC(C)N1NC(=O)c1cc(-n2c(=O)cc(C(F)(F)F)n(C)c2=O)c(F)cc1Cl (stereo not shown)	100
CC(=O)OC(=NN1C(C)CCCC1C)c1cc(-n2c(=O)cc(C(F)(F)F)n(C)c2=O)c(F)cc1Cl (stereo not shown)	0
Cn1c(C(F)(F)F)cc(=O)n(-c2cc(C(=O)NN3CCCC3)c(Cl)cc2F)c1=O	35
C#CCOC(=NN=C(C(C)(C)C)C(C)(C)C)c1cc(-n2c(=O)cc(C(F)(F)F)n(C)c2=O)c(F)cc1Cl	0
CN1CCN(NC(=O)c2cc(-n3c(=O)cc(C(F)(F)F)n(C)c3=S)c(F)cc2Cl)CC1	0
Cn1c(C(F)(F)F)cc(=O)n(-c2cc(C(=O)NNC(=O)OC(C)(C)C)c(Cl)cc2F)c1=O	90
CN(C)NC(=O)c1cc(-n2c(=O)cc(C(F)(F)F)n(C)c2=O)ccc1Cl	65

----------
# Test system: common ragweed (Ambrosia artemisiifolia L., AMBEL)
# procedure_details: Greenhouse herbicide screen, post-emerge application, phytotoxicity rating
# Type: in vivo
# stated_conditions: POST emergent, 63 g ai/ha, 14 days after application, scale 0-100
# Protocol: A standard greenhouse herbicide activity screening system was used to evaluate the herbicidal efficacy and crop safety of these test compounds. […] At 14 days after application of the test materials, phytotoxicity ratings were recorded. […]
Measured phytotoxicity rating AMBEL accompanies every entry in the list below.
measurement_label: phytotoxicity rating AMBEL

molecule	reported_result
CC1CCCC(C)N1N=C(OC(=O)C(Cl)Cl)c1cc(-n2c(=O)cc(C(F)(F)F)n(C)c2=O)c(F)cc1Cl (stereo not drawn) [Compound 4-8]	80
CN1CCN(NC(=O)c2cc(-n3c(=O)cc(C(F)(F)F)n(C)c3=S)c(F)cc2Cl)CC1 [Compound 1-14]	0
Cn1c(C(F)(F)F)cc(=O)n(-c2cc(C(=O)NN=C(C(C)(C)C)C(C)(C)C)c(Cl)cc2F)c1=O [Compound 6-4]	75
CCOC(=O)NNC(=O)c1cc(-n2c(=O)cc(C(F)(F)F)n(C)c2=O)c(F)cc1Cl [Compound 1-23]	85
C#CCOC(=NN=C(C(C)(C)C)C(C)(C)C)c1cc(-n2c(=O)cc(C(F)(F)F)n(C)c2=O)c(F)cc1Cl [Compound 5-7]	50
CC1CCCC(C)N1NC(=O)c1cc(-n2c(=O)cc(C(F)(F)F)n(C)c2=O)c(F)cc1Cl (stereo not drawn) [Compound 1-16]	99

----------
# System: field corn (Zea mays L., var. Dekalb 535, CORN)
# procedure_details: Greenhouse herbicide screen, pre-emerge application, crop damage rating
# Assay type: in vivo
# stated_conditions: PRE emergent, 63 g ai/ha, 14 days after application, rating scale 0-100
Measured crop damage rating CORN accompanies every entry in the list below.

molecule	crop damage rating CORN
CC1CCCC(C)N1N=C(OC(=O)C(Cl)Cl)c1cc(-n2c(=O)cc(C(F)(F)F)n(C)c2=O)c(F)cc1Cl (stereo not drawn)	0
C#CCOC(=NN=C(C(C)(C)C)C(C)(C)C)c1cc(-n2c(=O)cc(C(F)(F)F)n(C)c2=O)c(F)cc1Cl	0
CCOC(=O)NNC(=O)c1cc(-n2c(=O)cc(C(F)(F)F)n(C)c2=O)c(F)cc1Cl	80
CC(=O)OC(=NN1C(C)CCCC1C)c1cc(-n2c(=O)cc(C(F)(F)F)n(C)c2=O)c(F)cc1Cl (stereo not drawn)	30
Cn1c(C(F)(F)F)cc(=O)n(-c2cc(C(=O)NN3CCCC3)c(Cl)cc2F)c1=O	0
Cn1c(C(F)(F)F)cc(=O)n(-c2cc(C(=O)NN(Cc3ccccc3)Cc3ccccc3)c(Cl)cc2F)c1=O	10
CC(=NN=C(OC(=O)C(Cl)Cl)c1cc(-n2c(=O)cc(C(F)(F)F)n(C)c2=O)c(F)cc1Cl)C(C)(C)C	10
Cn1c(C(F)(F)F)cc(=O)n(-c2cc(C(=O)NN=C(c3ccccc3)c3ccccc3)c(Cl)cc2F)c1=O	0
CN(C)NC(=O)c1cc(-n2c(=O)cc(C(F)(F)F)n(C)c2=O)ccc1Cl	35

----------
Measured phytotoxicity rating ABUTH accompanies every entry in the list below.
# System: velvetleaf (Abutilon theophrasti, ABUTH)
# procedure_details: Greenhouse herbicide screen, pre-emerge application, phytotoxicity rating
# Assay type: in vivo
# stated_conditions: PRE emergent, 250 g ai/ha, 14 days after application, rating scale 0-100

compound	phytotoxicity rating ABUTH
CCOC(=O)NNC(=O)c1cc(-n2c(=O)cc(C(F)(F)F)n(C)c2=O)c(F)cc1Cl [Compound 1-23]	100
CC(=O)OC(=NN1C(C)CCCC1C)c1cc(-n2c(=O)cc(C(F)(F)F)n(C)c2=O)c(F)cc1Cl (stereo not shown) [Compound 4-9]	100
CC1CCCC(C)N1N=C(OC(=O)C(Cl)Cl)c1cc(-n2c(=O)cc(C(F)(F)F)n(C)c2=O)c(F)cc1Cl (stereo not shown) [Compound 4-8]	100
Cn1c(C(F)(F)F)cc(=O)n(-c2cc(C(=O)NN=C(c3ccccc3)c3ccccc3)c(Cl)cc2F)c1=O [Compound 6-15]	100
CC1CCCC(C)N1NC(=O)c1cc(-n2c(=O)cc(C(F)(F)F)n(C)c2=O)c(F)cc1Cl (stereo not shown) [Compound 1-16]	100
CC(=O)OC(=NN(C)C)c1cc(-n2c(=O)cc(C(F)(F)F)n(C)c2=O)ccc1Cl [Compound 4-4]	100
COC(=NN=C(C(C)(C)C)C(C)(C)C)c1cc(-n2c(=O)cc(C(F)(F)F)n(C)c2=O)c(F)cc1Cl [Compound 5-6]	95
CN(NC(=O)c1cc(-n2c(=O)cc(C(F)(F)F)n(C)c2=O)c(F)cc1Cl)c1ccccc1 [Compound 1-9]	100
Cn1c(C(F)(F)F)cc(=O)n(-c2cc(C(=O)NN=C(C(C)(C)C)C(C)(C)C)c(Cl)cc2F)c1=O [Compound 6-4]	100
CN1CCN(NC(=O)c2cc(-n3c(=O)cc(C(F)(F)F)n(C)c3=S)c(F)cc2Cl)CC1 [Compound 1-14]	90
